system_under_test: T1, EsCas13d, nuclease-dead (Eubacterium siraeum, UniProt B0MS50, R295A;H300A;R849A;H854A)
T1 sequence: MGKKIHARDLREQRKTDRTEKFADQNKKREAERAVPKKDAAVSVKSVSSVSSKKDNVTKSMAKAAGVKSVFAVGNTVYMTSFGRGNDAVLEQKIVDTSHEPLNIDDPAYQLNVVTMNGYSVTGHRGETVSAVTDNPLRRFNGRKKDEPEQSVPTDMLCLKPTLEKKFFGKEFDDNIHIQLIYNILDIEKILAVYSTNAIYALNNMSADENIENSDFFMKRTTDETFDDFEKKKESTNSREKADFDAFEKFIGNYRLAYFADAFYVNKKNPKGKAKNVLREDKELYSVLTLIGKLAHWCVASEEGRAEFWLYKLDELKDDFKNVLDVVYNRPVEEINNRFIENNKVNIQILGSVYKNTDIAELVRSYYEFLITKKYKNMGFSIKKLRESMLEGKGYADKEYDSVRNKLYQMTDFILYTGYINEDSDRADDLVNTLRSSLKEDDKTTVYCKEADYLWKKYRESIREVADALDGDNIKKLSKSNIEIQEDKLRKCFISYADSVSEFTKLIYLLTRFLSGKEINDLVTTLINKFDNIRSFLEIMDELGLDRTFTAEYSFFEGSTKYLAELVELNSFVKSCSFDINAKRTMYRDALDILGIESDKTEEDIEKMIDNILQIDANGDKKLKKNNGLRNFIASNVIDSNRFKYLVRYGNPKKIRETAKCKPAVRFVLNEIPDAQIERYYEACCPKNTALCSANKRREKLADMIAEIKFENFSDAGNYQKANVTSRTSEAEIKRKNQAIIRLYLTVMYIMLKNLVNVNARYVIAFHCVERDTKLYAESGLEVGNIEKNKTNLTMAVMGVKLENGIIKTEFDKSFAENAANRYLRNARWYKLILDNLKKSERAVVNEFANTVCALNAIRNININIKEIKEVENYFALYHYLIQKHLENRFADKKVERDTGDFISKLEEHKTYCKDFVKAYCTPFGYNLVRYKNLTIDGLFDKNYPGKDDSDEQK
measurement_description: crRNA (strand 1, pre-loaded); Mg2+; 40 mM Tris-HCl pH 7.5, 150 mM NaCl, 6 mM MgCl2, 1 mM DTT, 0.1% Tween-20, 0.2 mg/ml BSA; 25 C; 10 min per concentration, then washed
condition: tags: His6-TwinStrep-SUMO cleaved; N-terminal SNAP kept (SNAP-Surface 488); label: 3' end held by stalled T7 RNA polymerase
pKd: −log10 of the molar value.
Consider the following binders and their measured pKd readings.

binder	pKd
target 3 insC 3' of 3 (mixed) RNA 1: CACCCGUGCAAAAUUGCAGGGGUCUAAAACGACCUGAAUAUUUCAGAUCAAA RNA 2: GGGAAUGGAUCCACAUCUACGAAUUCGUUUUUGAUCUGAAAUAUUCAGGCUCUGCAGAUCGGAAGAGCACACGU	7.71
target 2 MT 5'PFS GAC 3'PFS UGA (mixed) RNA 1: CACCCGUGCAAAAUUGCAGGGGUCUAAAACCUUCUCCAAAUUGUUUCAUCCU RNA 2: GGGAAUGGAUCCACAUCUACGAAUUCGACAGGAUGAAACAAUUUGGAGAAGUGAAGAUCGGAAGAGCACACGU	7.89
target 1 C2G,U3A (mixed) RNA 1: CACCCGUGCAAAAAUGCAGGGGUCUAAAACUGAGCGGAUAACCUCUCUAUGG RNA 2: GGGAAUGGAUCCACAUCUACGAAUUCGUACCAUAGAGAGGUUAUCCGCAGACCGAGAUCGGAAGAGCACACGU	7.87
target 1 C7A,G12U (mixed) RNA 1: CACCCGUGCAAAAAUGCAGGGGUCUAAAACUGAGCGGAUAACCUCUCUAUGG RNA 2: GGGAAUGGAUCCACAUCUACGAAUUCGUACCAUAGAGAGUUUAUACGCUCACCGAGAUCGGAAGAGCACACGU	7.82
target 1 U19G,C21A (mixed) RNA 1: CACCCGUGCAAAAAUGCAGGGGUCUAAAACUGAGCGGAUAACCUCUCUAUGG RNA 2: GGGAAUGGAUCCACAUCUACGAAUUCGUACAAGAGAGAGGUUAUCCGCUCACCGAGAUCGGAAGAGCACACGU	7.25
target 1 insU 3' of 9,insU 3' of 5 (mixed) RNA 1: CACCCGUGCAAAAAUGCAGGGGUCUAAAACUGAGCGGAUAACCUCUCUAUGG RNA 2: GGGAAUGGAUCCACAUCUACGAAUUCGUACCAUAGAGAGGUUAUUCCGUCUCACCGAGAUCGGAAGAGCACACGU	8.10
target 1 U8G,G15U (mixed) RNA 1: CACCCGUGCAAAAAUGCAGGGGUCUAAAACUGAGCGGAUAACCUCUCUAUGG RNA 2: GGGAAUGGAUCCACAUCUACGAAUUCGUACCAUAGAUAGGUUAGCCGCUCACCGAGAUCGGAAGAGCACACGU	7.14
target 2 MT 5'PFS AGC 3'PFS UCU (mixed) RNA 1: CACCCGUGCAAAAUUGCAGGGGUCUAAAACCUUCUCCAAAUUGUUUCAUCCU RNA 2: GGGAAUGGAUCCACAUCUACGAAUUCAGCAGGAUGAAACAAUUUGGAGAAGUCUAGAUCGGAAGAGCACACGU	7.79
target 1 MT 5'PFS CAG 3'PFS UAU (mixed) RNA 1: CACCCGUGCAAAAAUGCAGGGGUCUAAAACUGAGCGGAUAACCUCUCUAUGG RNA 2: GGGAAUGGAUCCACAUCUACGAAUUCCAGCCAUAGAGAGGUUAUCCGCUCAUAUAGAUCGGAAGAGCACACGU	7.29
target 1 insC 3' of 14,insC 3' of 13 (mixed) RNA 1: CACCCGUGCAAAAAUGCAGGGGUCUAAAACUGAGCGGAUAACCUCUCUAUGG RNA 2: GGGAAUGGAUCCACAUCUACGAAUUCGUACCAUAGAGACGCGUUAUCCGCUCACCGAGAUCGGAAGAGCACACGU	7.28
target 3 insA 3' of 6,insA 3' of 2 (mixed) RNA 1: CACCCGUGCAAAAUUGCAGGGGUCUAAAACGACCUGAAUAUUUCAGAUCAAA RNA 2: GGGAAUGGAUCCACAUCUACGAAUUCGUUUUUGAUCUGAAAUAUUCAAGGUACUGCAGAUCGGAAGAGCACACGU	8.38
target 1 U8G,C21A (mixed) RNA 1: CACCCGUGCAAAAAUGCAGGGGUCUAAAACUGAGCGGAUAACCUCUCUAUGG RNA 2: GGGAAUGGAUCCACAUCUACGAAUUCGUACAAUAGAGAGGUUAGCCGCUCACCGAGAUCGGAAGAGCACACGU	7.27
target 2 MT 5'PFS UAA 3'PFS CCG (mixed) RNA 1: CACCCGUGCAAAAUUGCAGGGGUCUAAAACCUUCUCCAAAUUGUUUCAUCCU RNA 2: GGGAAUGGAUCCACAUCUACGAAUUCUAAAGGAUGAAACAAUUUGGAGAAGCCGAGAUCGGAAGAGCACACGU	8.25
target 1 insA 3' of 8,insC 3' of 8 (mixed) RNA 1: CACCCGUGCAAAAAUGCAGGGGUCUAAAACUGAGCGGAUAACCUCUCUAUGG RNA 2: GGGAAUGGAUCCACAUCUACGAAUUCGUACCAUAGAGAGGUUAUACCCGCUCACCGAGAUCGGAAGAGCACACGU	7.88

Data provenance: paper PMC10786891
